# Test system: irritable bowel syndrome rats
# test_protocol: Irritable bowel syndrome rats induced by early maternal separation
# Type: in vivo, SD rats
# Parameters: scale not given here
# condition_label: IBS rats; middle dose 15 mg/kg ig 20 d; 40 mm Hg
property_label: AWR scoring

Below: 3 compounds and their reported AWR scoring.
[in] Dear colleague, I am looking for the recorded AWR scoring of the following compound: `O=C(Nc1cccc(Cl)c1)C1CCN(C(=O)c2cc3ccccc3[nH]2)CC1`
[out] 3.01±0.40^∗∗

[in] Input `O=C(Nc1cccc(Cl)c1)C1CCN(C(=O)c2cc3cc(F)ccc3[nH]2)CC1`
[out] 3.02±0.51

[in] Input `O=C(Nc1ccc(Cl)cc1)C1CCN(C(=O)c2ccc(O)cc2)CC1`
[out] 3.56±0.22

Continuing:
[in] Dear colleague, I am looking for the recorded AWR scoring of the following compound: `O=C(Nc1cccc(Cl)c1)C1CCN(C(=O)c2cc(O)ccc2F)CC1`
[out] 2.52±0.38^∗∗∗

[in] Input `O=C(Nc1cccc(Cl)c1)C1CCN(C(=O)c2cccc(O)c2)CC1`
[out] 2.42±0.41^∗∗∗

[in] Input `Cn1c(C(=O)N2CCC(C(=O)Nc3cccc(Cl)c3)CC2)cc2ccccc21`
[out] 2.87±0.65^∗∗

---

# System: irritable bowel syndrome rats
# test_protocol: Irritable bowel syndrome rats induced by early maternal separation
# Type: in vivo, SD rats
# Set-up: scale not given here
# condition_label: IBS rats; low dose 7.5 mg/kg ig 20 d; 60 mm Hg
property_label: AWR scoring
The answer should be a number; do not append a unit.

[in] Dear colleague, I am looking for the recorded AWR scoring of the following compound: O=C(Nc1ccc(Cl)cc1)C1CCN(C(=O)c2ccc(O)cc2)CC1 [MAGLZ-II-10]
[out] 3.79

[in] Input Cn1c(C(=O)N2CCC(C(=O)Nc3cccc(Cl)c3)CC2)cc2ccccc21 [MAGLZ-II-18 (c)]
[out] 3.61

Continuing:
[in] Dear colleague, I am looking for the recorded AWR scoring of the following compound: O=C(Nc1cccc(Cl)c1)C1CCN(C(=O)c2cc3cc(F)ccc3[nH]2)CC1 [MAGLZ-II-18 (a)]
[out] 3.50

---

Inhibition ratio values for the compounds below.
# Tested on: mice writhing caused by acetic acid
# test_protocol: Mice writhing caused by acetic acid
# condition_label: low dose 7.5 mg/kg ig; writhing inhibition

Below: 2 compounds and their reported Inhibition ratio.
[in] Dear colleague, I am looking for the recorded Inhibition ratio of the following compound: `O=C(Nc1cccc(Cl)c1)C1CCN(C(=O)c2cccc(O)c2)CC1`
[out] 40.5%

[in] Input `O=C(Nc1cccc(Cl)c1)C1CCN(C(=O)c2cc3ccccc3[nH]2)CC1`
[out] 36.4%

Continuing:
[in] Dear colleague, I am looking for the recorded Inhibition ratio of the following compound: `O=C(Nc1cccc(Cl)c1)C1CCN(C(=O)c2cc3cc(F)ccc3[nH]2)CC1`
[out] 38.4%

[in] Input `O=C(Nc1cccc(Cl)c1)C1CCN(C(=O)c2cc(O)ccc2F)CC1`
[out] 42.5%

[in] Input `Cn1c(C(=O)N2CCC(C(=O)Nc3cccc(Cl)c3)CC2)cc2ccccc21`
[out] 28.0%

---

# Test system: reserpine-induced mice migraine
# test_protocol: Reserpine-induced mice migraine
# Format: in vivo, ICR mice
# condition_label: compared with the model group
property_label: blood coagulation time, in words

Below: 4 compounds and their reported blood coagulation time, in words.
[in] Dear colleague, I am looking for the recorded blood coagulation time, in words of the following compound: O=C(Nc1cccc(Cl)c1)C1CCN(C(=O)c2cccc(O)c2)CC1 [MAGLZ-II-11]
[out] significantly extend

[in] Input O=C(Nc1cccc(Cl)c1)C1CCN(C(=O)c2cc3ccccc3[nH]2)CC1 [MAGLZ-II-18]
[out] significantly extend

[in] Input Cn1c(C(=O)N2CCC(C(=O)Nc3cccc(Cl)c3)CC2)cc2ccccc21 [MAGLZ-II-18 (c)]
[out] significantly extend

[in] Input O=C(Nc1cccc(Cl)c1)C1CCN(C(=O)c2cc(O)ccc2F)CC1 [MAGLZ-II-11 (a)]
[out] significantly extend

Continuing:
[in] Dear colleague, I am looking for the recorded blood coagulation time, in words of the following compound: O=C(Nc1cccc(Cl)c1)C1CCN(C(=O)c2cc3cc(F)ccc3[nH]2)CC1 [MAGLZ-II-18 (a)]
[out] significantly extend

---

# Tested on: mice with inflammatory pain
# test_protocol: Pain threshold of mice with inflammatory pain (complete Freund's adjuvant)
# Assay type: in vivo, SD mice
# condition_label: complete Freund's adjuvant paw model; low dose 7.5 mg/kg ig once per day; 1 d
property_label: Pain threshold

[in] # returns recorded Pain threshold (system: mice with inflammatory pain) for `O=C(Nc1cccc(Cl)c1)C1CCN(C(=O)c2cc3cc(F)ccc3[nH]2)CC1`
[out] 6.97±0.87^∗∗ s

[in] Input `O=C(Nc1ccc(Cl)cc1)C1CCN(C(=O)c2ccc(O)cc2)CC1`
[out] 5.59 ± 0.89 s

[in] Input `O=C(Nc1cccc(Cl)c1)C1CCN(C(=O)c2cc3ccccc3[nH]2)CC1`
[out] 6.39±0.91^∗ s

[in] Input `O=C(Nc1cccc(Cl)c1)C1CCN(C(=O)c2cc(O)ccc2F)CC1`
[out] 7.38±1.19^∗∗∗ s

[in] Input `O=C(Nc1cccc(Cl)c1)C1CCN(C(=O)c2cccc(O)c2)CC1`
[out] 7.55±1.29^∗∗∗ s

Continuing:
[in] # returns recorded Pain threshold (system: mice with inflammatory pain) for `Cn1c(C(=O)N2CCC(C(=O)Nc3cccc(Cl)c3)CC2)cc2ccccc21`
[out] 6.36±0.89^∗ s

---

# Tested on: irritable bowel syndrome rats
# test_protocol: Irritable bowel syndrome rats induced by early maternal separation
# Format: in vivo, SD rats
# condition_label: IBS rats; high dose 30 mg/kg ig 20 d
Serum 5-HT values for the compounds below.

Below: 3 compounds and their reported Serum 5-HT.
[in] Dear colleague, I am looking for the recorded Serum 5-HT of the following compound: Cn1c(C(=O)N2CCC(C(=O)Nc3cccc(Cl)c3)CC2)cc2ccccc21 [MAGLZ-II-18 (c)]
[out] 29.03±5.29^∗∗∗ µg/ml

[in] Input O=C(Nc1cccc(Cl)c1)C1CCN(C(=O)c2cc3ccccc3[nH]2)CC1 [MAGLZ-II-18]
[out] 30.86±5.28^∗∗∗ µg/ml

[in] Input O=C(Nc1cccc(Cl)c1)C1CCN(C(=O)c2cc(O)ccc2F)CC1 [MAGLZ-II-11 (a)]
[out] 24.05±6.17^∗∗∗ µg/ml

Continuing:
[in] Dear colleague, I am looking for the recorded Serum 5-HT of the following compound: O=C(Nc1cccc(Cl)c1)C1CCN(C(=O)c2cccc(O)c2)CC1 [MAGLZ-II-11]
[out] 23.82±6.34^∗∗∗ µg/ml

[in] Input O=C(Nc1ccc(Cl)cc1)C1CCN(C(=O)c2ccc(O)cc2)CC1 [MAGLZ-II-10]
[out] 33.09±2.31^∗ µg/ml

[in] Input O=C(Nc1cccc(Cl)c1)C1CCN(C(=O)c2cc3cc(F)ccc3[nH]2)CC1 [MAGLZ-II-18 (a)]
[out] 29.44 ± 4.37 µg/mL

---

# test_protocol: Tissue distribution test in mice
# Format: in vivo
# Set-up: unit not given here
# condition_label: 16 mg/kg subcutaneous injection, 1.0 h
property_label: content in the brain (tissue distribution)
The answer should be a number; do not append a unit.

[in] Dear colleague, I am looking for the recorded content in the brain (tissue distribution) of the following compound: O=C(Nc1cccc(Cl)c1)C1CCN(C(=O)c2ccc3ccccc3c2)CC1 [MAGLZ-II-17]
[out] 2.9

[in] Input Cc1cc(C)cc(NC(=O)C2CCN(C(=O)c3ccc(Oc4ccccc4)cc3)CC2)c1 [MAGLZ-II-02]
[out] 0

Continuing:
[in] Dear colleague, I am looking for the recorded content in the brain (tissue distribution) of the following compound: O=C(Nc1cccc(Cl)c1)C1CCN(C(=O)c2ccc(Oc3ccccc3)cc2)CC1 [MAGLZ-II-16]
[out] 0

[in] Input O=C(Nc1ccccc1)C1CCN(C(=O)c2ccc(Oc3ccccc3)cc2)CC1 [MAGLZ-II-01]
[out] 0

[in] Input O=C(Nc1cccc(Cl)c1)C1CCN(C(=O)c2cccc(O)c2)CC1 [MAGLZ-II-11]
[out] 0

---

# System: ulcerative colitis mice
# test_protocol: Mice ulcerative colitis (DSS)
# Type: in vivo, BALB/c mice
# condition_label: DSS mice; middle dose 15 mg/kg ig; serum, ELISA
property_label: IL-1 content (pg/mL)
Unit pg/mL implied. Number only.

[in] Dear colleague, I am looking for the recorded IL-1 content of the following compound: O=C(Nc1cccc(Cl)c1)C1CCN(C(=O)c2cc3ccccc3[nH]2)CC1 [MAGLZ-II-18]
[out] 49.01

[in] Input O=C(Nc1ccc(Cl)cc1)C1CCN(C(=O)c2ccc(O)cc2)CC1 [MAGLZ-II-10]
[out] 50.83

[in] Input Cn1c(C(=O)N2CCC(C(=O)Nc3cccc(Cl)c3)CC2)cc2ccccc21 [MAGLZ-II-18 (c)]
[out] 44.09

[in] Input O=C(Nc1cccc(Cl)c1)C1CCN(C(=O)c2cc3cc(F)ccc3[nH]2)CC1 [MAGLZ-II-18 (a)]
[out] 43.77

[in] Input O=C(Nc1cccc(Cl)c1)C1CCN(C(=O)c2cccc(O)c2)CC1 [MAGLZ-II-11]
[out] 41.40

Attention now shifts to the item below.
[in] Dear colleague, I am looking for the recorded IL-1 content of the following compound: O=C(Nc1cccc(Cl)c1)C1CCN(C(=O)c2cc(O)ccc2F)CC1 [MAGLZ-II-11 (a)]
[out] 40.70
